target: Luciferin 4-monooxygenase (Photinus pyralis); test: qHTS profiling assay for firefly luciferase inhibitor/activator using purifed enzyme and Km concentrations of substrates (counterscreen for miR-21 project); conditions: purified FLuc, luminescence inhibition; series mostly up to 57.5 µM; note: nearly all actives have a fitted effect of over 55% in size
In all, about 360,000 compounds went through this assay and about 25,000 (6.9%) were called active. About 9% were inconclusive and are not listed. Calls come from the whole dose curve; as a rule, active = well fitted inhibition curve with a large enough effect; inconclusive = small, poorly fitted or top-dose-only effect; inactive = flat fitted curve, though single readings scatter. The full list was thinned out, with actives kept by preference.
Tick one outcome: T = active, F = inactive

Could you please tell me the result logged for CCOc1ccc(NC(=O)c2cn(C3CCCCC3)c(=O)c3c2c2ccccc2n3C)cc1 in this assay?
F

Could you please tell me the result logged for COCCNS(=O)(=O)c1cc(-c2nn3c(C)nnc3c3ccccc23)ccc1C in this assay?
F

Could you please tell me the result logged for COc1ccc([C@H]2CC(=O)C=C(c3ccc(OC(F)(F)F)cc3)C2)cc1OC in this assay?
F

Could you please tell me the result logged for O=C(O)c1ccc(NS(=O)(=O)c2ccc3c(c2)C(=O)c2cc(S(=O)(=O)Nc4ccc(C(=O)O)cc4)ccc2-3)cc1 in this assay?
T

Could you please tell me the result logged for COc1ccc(CNC(=O)C2CCN(C(=O)c3ccccc3)CC2)cc1 in this assay?
F

Could you please tell me the result logged for CCOC(=O)c1nn(-c2cccc(C)c2)cc1C(=O)c1ccccc1 in this assay?
T

Could you please tell me the result logged for CCOc1ccc(OCc2cccc(C(=O)N(CC)CC)c2)cc1 in this assay?
T

Could you please tell me the result logged for COc1ccc(OCc2cccc(C(=O)N3CCCC3)c2)cc1 in this assay?
T

Could you please tell me the result logged for CCOc1ccc(N(CC)S(=O)(=O)N2CCCC(C(=O)NCc3ccc(Cl)cc3)C2)cc1 (centres undefined) in this assay?
F

Could you please tell me the result logged for COc1ccc(C2(Nc3cccc(F)c3)C(=O)c3ccccc3C2=O)cc1 in this assay?
F

Could you please tell me the result logged for O=C(NCc1ccncc1)C1CCN(C(=O)c2cccc(Cl)c2)CC1 in this assay?
F

Could you please tell me the result logged for CC(=O)c1nn(-c2cccc(Br)c2)cc1C(=O)c1cccc2ccccc12 in this assay?
F

Could you please tell me the result logged for Cc1nc(Cl)cc(N/N=C/c2ccccc2)n1 in this assay?
T

Could you please tell me the result logged for COc1cccc(COc2ccc(N(C)S(=O)(=O)c3ccccc3)cc2)c1 in this assay?
F

Could you please tell me the result logged for C(=N/Nc1cc(N2CCOCC2)nc(N2CCOCC2)n1)/c1ccccc1 in this assay?
F

Could you please tell me the result logged for CCOc1ccc(-c2cc3c(=O)n(CC(=O)NCc4ccc(OC)cc4)ccn3n2)cc1 in this assay?
F

Could you please tell me the result logged for CCOc1ccc(OCC)c(NS(=O)(=O)c2ccc3[nH]c(=O)ccc3c2)c1 in this assay?
F

Could you please tell me the result logged for CCc1ccc(NC(=O)c2cc(S(=O)(=O)N3CCCC(C)C3)cn2C)cc1 (centres undefined) in this assay?
F

Could you please tell me the result logged for CCOc1ccc(OCc2ccc(C(=O)N(C)c3ccccc3)o2)cc1 in this assay?
F

---

Target: Luciferin 4-monooxygenase (Photinus pyralis) (UniProt P08659)
Sequence (P08659 whole entry, looked up): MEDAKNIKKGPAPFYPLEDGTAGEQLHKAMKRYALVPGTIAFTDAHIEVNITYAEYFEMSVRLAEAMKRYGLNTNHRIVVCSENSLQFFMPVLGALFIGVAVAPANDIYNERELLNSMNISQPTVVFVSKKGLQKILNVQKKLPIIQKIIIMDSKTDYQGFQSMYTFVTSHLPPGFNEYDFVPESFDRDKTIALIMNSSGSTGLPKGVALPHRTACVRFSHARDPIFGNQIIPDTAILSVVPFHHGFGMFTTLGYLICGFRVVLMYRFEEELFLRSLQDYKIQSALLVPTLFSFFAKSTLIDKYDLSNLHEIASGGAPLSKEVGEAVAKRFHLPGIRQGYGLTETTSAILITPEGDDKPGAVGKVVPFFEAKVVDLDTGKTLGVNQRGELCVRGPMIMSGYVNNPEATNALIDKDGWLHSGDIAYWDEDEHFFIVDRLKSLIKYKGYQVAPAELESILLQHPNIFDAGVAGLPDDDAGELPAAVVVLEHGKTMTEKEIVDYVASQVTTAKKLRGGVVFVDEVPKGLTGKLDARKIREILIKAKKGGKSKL
Experiment: qHTS profiling assay for firefly luciferase inhibitor/activator using purifed enzyme and Km concentrations of substrates (counterscreen for miR-21 project); note: nearly all actives have a fitted effect of over 55% in size
Conditions: purified FLuc, luminescence inhibition; series mostly up to 57.5 µM
From the text: MLPCN Grant: 1 R21 NS059478-01 (miR-21 grant) Assay Provider: NCGC NCGC Assay Overview: Firefly (Photinus pyralis) luciferase is one of the most commonly used transcriptional reporters for a number of reasons. […] Although light produced in a bioluminescence reaction is of lower intensity than that produced during fluorescence emission, this is offset by little to no background light inherent to luminescent assays. […]
The whole screen tested about 360,000 compounds, of which about 25,000 (6.9%) were called active. About 9% were inconclusive and are not listed. The call rests on the fitted dose curve; in most records, active means well fitted inhibition curve with a large enough effect; inconclusive means small, poorly fitted or top-dose-only effect; inactive means flat fitted curve, though single readings scatter. The sample holds actives, similar compounds and a random draw of the others, so the mix is not that of the screen.
Tick one outcome: y (active), n (inactive)

Could you please tell me the result logged for COc1ccc(-c2cc3ccc(OCc4nn[nH]n4)cc3oc2=O)cc1 in this assay?
y

Could you please tell me the result logged for O=C(NCC1CCCO1)c1ccc(S(=O)(=O)Nc2ccc(F)cc2)cc1 (stereo not drawn) in this assay?
n

Could you please tell me the result logged for Cn1nnc2cc(C(=O)NCCC3=CCCCC3)ccc21 in this assay?
y

Could you please tell me the result logged for NC(=O)N/N=C\c1cccs1 in this assay?
n

Could you please tell me the result logged for CCN(CC)c1ccc(/C=N/NC(=O)CNC(=O)c2cccs2)cc1 in this assay?
y

Could you please tell me the result logged for COc1ccc(OC)c(S(=O)(=O)Nc2ccccc2F)c1 in this assay?
n

Could you please tell me the result logged for COc1cccc(CNC(=O)C(=O)NCC(c2cccs2)S(=O)(=O)c2ccccc2)c1 (stereo not drawn) in this assay?
n

Could you please tell me the result logged for CC(C)C12CN3CC(C(C)C)(CN(C1)C3c1ccc(OCc3ccccc3)cc1)C2=O (stereo not drawn) in this assay?
n

Could you please tell me the result logged for COc1ccc(-c2cc(C(F)(F)F)nc(NCc3cccnc3)n2)cc1 in this assay?
n

Could you please tell me the result logged for CCOC(=O)c1c(C)[nH]c(CCC(=O)NCCCN2CCN(c3cc(C)ccc3C)CC2)c1C in this assay?
n

Could you please tell me the result logged for CC(C)OCCCNC(=O)CNC(=O)c1cccs1 in this assay?
n

Could you please tell me the result logged for Cc1cccc(-n2ncc(C(=O)N3CCC(C)CC3)c2C2CCN(C(=O)OC(C)(C)C)CC2)c1 in this assay?
n

Could you please tell me the result logged for O=C(c1ccc(Cl)nc1)N1CCN(S(=O)(=O)c2ccc3c(c2)OCCO3)CC1 in this assay?
n

Could you please tell me the result logged for COc1ccc(-c2cc3ncccc3cn2)cc1 in this assay?
y

Could you please tell me the result logged for CCOC(=O)c1ccc(-c2ccc(/C=C(\C#N)C(=O)Nc3ccc(OCC)cc3)o2)cc1 in this assay?
n

Could you please tell me the result logged for Cc1cc(=O)oc(C)c1C(=O)NC1CC(C)(C)NC(C)(C)C1 in this assay?
n

Could you please tell me the result logged for O=C(Oc1cccc(NC2=NS(=O)(=O)c3ccccc32)c1)c1ccncc1 in this assay?
y

Could you please tell me the result logged for Nc1ccc(N=Nc2ccccc2Cl)c(N)n1 in this assay?
y

---

target: Luciferin 4-monooxygenase (Photinus pyralis) (UniProt P08659); test: qHTS profiling assay for firefly luciferase inhibitor/activator using purifed enzyme and Km concentrations of substrates (counterscreen for miR-21 project); settings: purified FLuc, luminescence inhibition; series mostly up to 57.5 µM; note: nearly all actives have a fitted effect of over 55% in size
In all, about 360,000 compounds went through this assay and about 25,000 (6.9%) were called active. Inconclusive results (about 9%) are left out. The call rests on the fitted dose curve; in most records, active means well fitted inhibition curve with a large enough effect; inconclusive means small, poorly fitted or top-dose-only effect; inactive means flat fitted curve, though single readings scatter. The list comes from a sample in which actives are over-represented; it also holds close analogues and randomly drawn compounds.
Tick one outcome: active, inactive

Could you please tell me the result logged for COc1cccc(-c2coc3cc4oc(=O)c(CC(=O)O)c(C)c4cc23)c1 in this assay?
active

Could you please tell me the result logged for Cc1ccc(NC(=O)CSc2nc3c([nH]c4ccccc43)c(=O)n2-c2ccccc2)c(C)c1 in this assay?
inactive

Could you please tell me the result logged for Cc1oc(C)c(C(=O)NCCCC(=O)O)c1C(=O)NCCCC(=O)O in this assay?
inactive

Could you please tell me the result logged for Cc1ccc(NC(=O)C2CCCN2S(=O)(=O)c2cccc3cccnc23)c(C)c1 (stereo not given) in this assay?
inactive

Could you please tell me the result logged for COc1ccccc1N1CCN(C(=O)CSc2nnc(-c3ccoc3C)o2)CC1 in this assay?
inactive

Could you please tell me the result logged for Cc1ccc(-n2ncc3c(N4CCC(C(N)=O)CC4)ncnc32)cc1 in this assay?
active

Could you please tell me the result logged for CC(C)c1nc2oc3c(N4CCN(C)CC4)ncnc3c2c2c1CCC2 in this assay?
inactive

Could you please tell me the result logged for CCOC(=O)c1c(S(=O)(=O)NCC(=O)Nc2ccc(Cl)c(C(F)(F)F)c2)c(C)n(C)c1C in this assay?
inactive

Could you please tell me the result logged for O=C(c1cccc([N+](=O)[O-])c1)N1CCN(Cc2ccccc2)CC1 in this assay?
inactive

Could you please tell me the result logged for CCOC(=O)c1cn(CC)c2cc(F)c(F)cc2c1=O in this assay?
inactive

Could you please tell me the result logged for COC(=O)c1cc(NC(=O)c2nn(C)c(=O)c3ccccc23)cc(C(=O)OC)c1 in this assay?
inactive

Could you please tell me the result logged for CC(C)[C@H](NC(=O)c1ccc(F)cc1)C(=O)OCC(=O)NC(=O)c1cccn1C in this assay?
inactive

Could you please tell me the result logged for Cc1ccc2[nH]c(=O)c(CC(=O)O)c(-c3ccccc3)c2c1 in this assay?
inactive

Could you please tell me the result logged for CCN1CCN(c2ncnc3c2cnn3-c2ccc(C)c(C)c2)CC1 in this assay?
active

Could you please tell me the result logged for COc1cccc(N2CCN(C(=O)CCCCCn3c(=O)[nH]c4ccccc4c3=O)CC2)c1 in this assay?
inactive

Could you please tell me the result logged for COc1ccc(CNC(=O)CNC(=O)c2sc3ccccc3c2Cl)cc1OC in this assay?
inactive

Could you please tell me the result logged for Fc1ccc(-c2nc(Nc3cccc(Cl)c3)nc3c2COc2ccccc2-3)cc1 in this assay?
inactive

Could you please tell me the result logged for COc1ccccc1N1CCN(C(=O)CSc2ncnc3c2cnn3-c2ccc(C)c(C)c2)CC1 in this assay?
active

Could you please tell me the result logged for CCN(CC)C(=O)CSc1nc2ccccc2n1CC(=O)N1CCN(c2ccccc2OC)CC1 in this assay?
inactive

Could you please tell me the result logged for CC(C)CC(=O)NCC(c1ccc2c(c1)OCO2)N1CCN(c2ccc(F)cc2)CC1 (stereo not given) in this assay?
inactive

Could you please tell me the result logged for Cc1ccc(-n2ncc3c(=O)n(Cc4cccc(C(F)(F)F)c4)cnc32)cc1C in this assay?
inactive

Could you please tell me the result logged for COc1ccc(S(=O)(=O)NCC(c2ccc(N(C)C)cc2)N2CCCC2)cc1 (stereo not given) in this assay?
inactive

Could you please tell me the result logged for C/C(=N/NC(=O)c1cc(Cl)ccc1O)C12CC3CC(CC(C3)C1)C2 in this assay?
active

Could you please tell me the result logged for CC1=C(c2ccc(C)cc2)S(=O)(=O)NC1=NCCCN1CCN(c2cc(C)ccc2C)CC1 in this assay?
inactive

Could you please tell me the result logged for CCCCN(C)CCCNC(=O)c1cc(-c2cccs2)nc2ccccc12 in this assay?
inactive

Could you please tell me the result logged for CCn1cc(C(=O)NCc2ccc(OC)cc2OC)c(=O)c2ccc(C)nc21 in this assay?
inactive

Could you please tell me the result logged for Cc1ccc(Cl)cc1N1CCN(C(=O)C2CCC(CNS(=O)(=O)c3cccs3)CC2)CC1 (stereo not given) in this assay?
inactive

Could you please tell me the result logged for CCOc1ccc(C(=O)Nc2ccc3nc4c(c(Nc5ccccc5OC)c3c2)CCCC4)cc1 in this assay?
inactive

Could you please tell me the result logged for COc1ccc(OC)c(NC(=O)CN2CCCN(Cc3cc(C)ccc3C)S2(=O)=O)c1 in this assay?
inactive

Could you please tell me the result logged for O=C(CCc1ccccc1Cl)Nc1ccc(S(=O)(=O)Nc2nccs2)cc1 in this assay?
inactive

Values compiled from PubChem BioAssay AID588342.
